# Test system: Mycobacterium tuberculosis
# run description: Antitubercular activity against Mycobacterium tuberculosis H37Rv incubated for 10 days in anaerobic condition followed by 48 hrs incubation in aerobic condition by LORA assay
# Type: functional
// boundary case: MIC90 equal to 0.4 µg/mL maps to No; strictly smaller maps to Yes

Item `CCNc1n[n+]([O-])c2cc(F)ccc2[n+]1[O-]` : MIC90 beneath 0.4 µg/mL, strictly?
No

Item `[O-][n+]1nc(N[C@@H]2C[C@H]3CC[C@@H]2C3)[n+]([O-])c2cc3c(cc21)CCC3` : MIC90 beneath 0.4 µg/mL, strictly?
Yes

Item `COc1ccc2c(c1)[n+]([O-])nc(NC1CCC1)[n+]2[O-]` : MIC90 beneath 0.4 µg/mL, strictly?
No

Item `[O-][n+]1nc(NC2CC2)[n+]([O-])c2ccc(Cl)cc21` : MIC90 beneath 0.4 µg/mL, strictly?
Yes

Item `C[C@@H](Nc1n[n+]([O-])c2ccccc2[n+]1[O-])C1CCCCC1` : MIC90 beneath 0.4 µg/mL, strictly?
Yes

Item COCC(C)Nc1n[n+]([O-])c2cc(F)ccc2[n+]1[O-] (stereo not given) : MIC90 beneath 0.4 µg/mL, strictly?
No

Item `COc1cc2c(cc1C)[n+]([O-])nc(NC1CCC1)[n+]2[O-]` : MIC90 beneath 0.4 µg/mL, strictly?
No

Item `[O-][n+]1nc(NC2CCC2)[n+]([O-])c2cc3c(cc21)CCC3` : MIC90 beneath 0.4 µg/mL, strictly?
No

Item `COCCNC(=O)c1ccc2c(c1)[n+]([O-])c(C(C)=O)c(C)[n+]2[O-]` : MIC90 beneath 0.4 µg/mL, strictly?
No

Item `CCN(CC)c1n[n+]([O-])c2ccccc2[n+]1[O-]` : MIC90 beneath 0.4 µg/mL, strictly?
No

----------
# run description: Solubility of the compound in 0.9% saline solution after 48 hrs by shake flask method at pH 7.4
# Type: physicochemical
I'd appreciate it if you could supply solubility thermodynamic at 48 h values for the items below.
Kindly answer with a numeric value in µg/mL, unit omitted.

Data point: `CCNc1n[n+]([O-])c2ccccc2[n+]1[O-]` ; solubility thermodynamic at 48 h = 1350

Data point: `[O-][n+]1nc(N2CCCC2)[n+]([O-])c2cc3c(cc21)CCC3` ; solubility thermodynamic at 48 h = 280

----------
# Tested on: Mycobacterium tuberculosis
# run description: Antitubercular activity against Mycobacterium tuberculosis H37Rv incubated for 10 days in anaerobic condition followed by 48 hrs incubation in aerobic condition by LORA assay
# Format: functional
outcome measure: log10 MIC90 (log10 of the value in µg/mL)
# log10 transformed; quantity=MIC90; unit=µg/mL

Data point: `CN(CCc1ccccc1)c1n[n+]([O-])c2cc3c(cc2[n+]1[O-])CCC3` ; log10 MIC90 = -0.36

Data point: CC(C)CCC(C)Nc1n[n+]([O-])c2ccccc2[n+]1[O-] (stereo unspecified) ; log10 MIC90 = -0.42

Data point: `[O-][n+]1nc(NC2CCCCC2)[n+]([O-])c2ccc(F)cc21` ; log10 MIC90 = -0.33

Data point: `Cc1cccc2c1[n+]([O-])c(NC1CCC1)n[n+]2[O-]` ; log10 MIC90 = -0.37

Data point: `Nc1n[n+]([O-])c2ccccc2[n+]1[O-]` ; log10 MIC90 = 0.86
